System: Vero E6 infected with SARS-CoV-2
Experiment: inhibition of SARS-CoV-2 cytopathic effect; higher = more antiviral protection, active = above 15
Conditions: 100 nM; 48 h
Each record here notes measured inhibition of SARS-CoV-2 cytopathic effect.

Please review the following examples before continuing.
N[C@@H](C(=O)N[C@@H]1C(=O)N2C(C(=O)O)=C(Cl)CS[C@H]12)c1ccccc1 [cefaclor] = 1.55% (inactive)
CC(C)(Cc1ccc2ccccc2c1)NC[C@@H](O)COc1cccc(Cl)c1C#N = 0.1% (inactive)
O=C(C(c1ccccc1)c1ccccc1)N1CCN(CC(O)COc2cccc3ncccc23)CC1 (centres undefined) [dofequidar] = -1.1% (inactive)
CCCCCCCCC(=O)N[C@H](CN1CCCC1)[C@H](O)c1ccc2c(c1)OCCO2 = 2.54% (inactive)
Cc1ccc([N+](=O)[O-])cc1S(=O)(=O)N(C)/N=C/c1cnc2ccc(Br)cn12 = -5.92% (inactive)
O=c1c(-c2ccccc2)c1-c1ccccc1 [diphencyprone] = -1.61% (inactive)

Lab book: inhibition of SARS-CoV-2 cytopathic effect of CN(Cc1cnc2nc(N)nc(N)c2n1)c1ccc(C(=O)N[C@@H](CCC(=O)O)C(=O)O)cc1 [methotrexate] noted as -0.4% (inactive)

Lab book: inhibition of SARS-CoV-2 cytopathic effect of Clc1ccc(Cn2c(CN3CCCC3)nc3ccccc32)cc1 [clemizole] noted as -3.58% (inactive)

Lab book: inhibition of SARS-CoV-2 cytopathic effect of O=C1c2ccccc2-n2c1nc1ccccc1c2=O [tryptanthrin] noted as 0.33% (inactive)
